Biological target: Focal adhesion kinase 1 (Homo sapiens)
Conditions: at 1 µM
Overview of reported residual activity across a group of compounds:
Expressed in %, but write only the number.

Solved entries:
O=C1Nc2ccc3ncsc3c2/C1=C/c1c[nH]cn1 ... 73
CC(C)(C)c1cc(C=C(C#N)C#N)cc(Br)c1O ... 149

# context switch: different compound, same residual activity
Can you look up the measured residual activity of COC(=O)[C@@]1(O)C[C@H]2O[C@]1(C)n1c3ccccc3c3c4c(c5c6ccccc6n2c5c31)C(=O)NC4 for me?
39

---

Biological target: RAC-gamma serine/threonine-protein kinase (Homo sapiens)
Settings: at 1 µM
# residual activity listing for each entry below
Numbers only; they are read as %.

Below: 5 compounds and their reported residual activity.
COC(=O)[C@@]1(O)C[C@H]2O[C@]1(C)n1c3ccccc3c3c4c(c5c6ccccc6n2c5c31)C(=O)NC4 ... 11
O=C1NC(=O)c2c1c1c3ccccc3n3c1c1c2c2ccccc2n1C1CCC3O1 ... 96
C[S+]([O-])c1ccc(-c2nc(-c3ccc(F)cc3)c(-c3ccncc3)[nH]2)cc1 (configuration not stated) ... 117
N/C(=N\[N+](=O)[O-])N/N=C\c1ccc(-c2cccc([N+](=O)[O-])c2)o1 ... 77
O=[N+]([O-])/C=C/c1ccc2c(c1)OCO2 ... 125

Item COc1cc(OC)c(/C=C2\C(=O)Nc3ccccc32)c(OC)c1 has what recorded residual activity?
103

Reported residual activity, compound CC(C)(C)c1cc(C=C(C#N)C#N)cc(Br)c1O : ____
106

---

Entries and their residual activity
Molecular target: Ephrin type-A receptor 1 (Homo sapiens)
Conditions: at 10 µM
Output spec: scalar in %, unitless text.

Use these answered entries as a reference point.
O=C1c2ccccc2-c2nc3nnnn3nc21 ... 123
COC(=O)[C@@]1(O)C[C@H]2O[C@]1(C)n1c3ccccc3c3c4c(c5c6ccccc6n2c5c31)C(=O)NC4 ... 0
COc1cc2ncnc(Nc3ccc(OCc4ccccc4)cc3)c2cc1OC ... 104
CCn1cnc2c(Nc3cccc(Cl)c3)nc(N[C@@H]3CCCC[C@@H]3N)nc21 ... 3
COc1cc(OC)c(/C=C2\C(=O)Nc3ccccc32)c(OC)c1 ... 82
c1cc(-c2cnn3cc(-c4ccc(OCCN5CCCCC5)cc4)cnc23)ccn1 ... 1
C[S+]([O-])c1ccc(-c2nc(-c3ccc(F)cc3)c(-c3ccncc3)[nH]2)cc1 (stereo unspecified) ... 26
CC(C)(C)c1cc(C=C(C#N)C#N)cc(Br)c1O ... 130

Name the reported residual activity value associated with the compound O=c1[nH]c2ccccc2n1C1CCN(Cc2ccc(-c3nc4cc5[nH]cnc5cc4nc3-c3ccccc3)cc2)CC1
90

So what does the record say about residual activity for O=[N+]([O-])/C=C/c1ccc2c(c1)OCO2 ?
102

Reported residual activity, compound CC(C)[C@H](CO)Nc1nc(Nc2cccc(Cl)c2)c2ncn(C(C)C)c2n1 : ____
14

---

Biological target: Tyrosine-protein kinase Tec (Homo sapiens)
Settings: at 1 µM
residual activity: recorded values
Answer as a quantity: numeral, then unit.

Please review the entries below; each comes with its answer.
O=[N+]([O-])/C=C/c1ccc2c(c1)OCO2 ... 89%
O=C1Nc2ccc3ncsc3c2/C1=C/c1c[nH]cn1 ... 91%
O=C1NC(=O)c2c1c1c3ccccc3n3c1c1c2c2ccccc2n1C1CCC3O1 ... 66%

We now examine a further compound.
Please state recorded residual activity (tested on Tyrosine-protein kinase Tec (Homo sapiens)) of CCc1nc(-c2ccc(OC)cc2)[nH]c1-c1ccncc1
102%

---

Target: Focal adhesion kinase 1 (Homo sapiens)
Details: at 1 µM
Here the recorded residual activity is given for each entry.
Number only, in %; omit the unit.

What value of residual activity has been reported for the following compound? CCc1nc(-c2ccc(OC)cc2)[nH]c1-c1ccncc1
115

---

Measured residual activity, listed per entry.
Target: CDK3/cyclin E (Homo sapiens) (UniProt P24864+O96020+Q00526)
Sequence (O96020 whole entry, looked up): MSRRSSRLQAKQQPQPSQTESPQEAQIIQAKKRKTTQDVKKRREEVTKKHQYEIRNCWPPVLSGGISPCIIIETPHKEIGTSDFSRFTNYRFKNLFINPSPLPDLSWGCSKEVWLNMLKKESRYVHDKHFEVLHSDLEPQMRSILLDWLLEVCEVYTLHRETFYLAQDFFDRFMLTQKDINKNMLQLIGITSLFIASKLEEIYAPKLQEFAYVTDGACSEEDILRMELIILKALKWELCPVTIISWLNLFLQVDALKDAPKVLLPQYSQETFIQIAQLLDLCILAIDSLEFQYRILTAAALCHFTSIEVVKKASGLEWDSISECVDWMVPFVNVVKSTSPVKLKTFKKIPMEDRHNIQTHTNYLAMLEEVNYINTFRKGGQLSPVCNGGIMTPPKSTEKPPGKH
Sequence (P24864 whole entry, looked up): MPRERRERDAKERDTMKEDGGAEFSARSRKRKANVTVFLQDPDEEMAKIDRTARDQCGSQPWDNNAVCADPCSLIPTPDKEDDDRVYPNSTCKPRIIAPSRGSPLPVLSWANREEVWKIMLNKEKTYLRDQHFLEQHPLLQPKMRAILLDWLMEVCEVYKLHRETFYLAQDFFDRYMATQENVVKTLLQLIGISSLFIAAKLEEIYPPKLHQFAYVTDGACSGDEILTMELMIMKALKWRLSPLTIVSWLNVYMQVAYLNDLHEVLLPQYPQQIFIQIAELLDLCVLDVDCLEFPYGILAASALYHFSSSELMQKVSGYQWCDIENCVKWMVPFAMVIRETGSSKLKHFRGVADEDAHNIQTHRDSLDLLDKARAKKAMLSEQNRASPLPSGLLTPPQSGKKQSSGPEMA
Sequence (Q00526 whole entry, looked up): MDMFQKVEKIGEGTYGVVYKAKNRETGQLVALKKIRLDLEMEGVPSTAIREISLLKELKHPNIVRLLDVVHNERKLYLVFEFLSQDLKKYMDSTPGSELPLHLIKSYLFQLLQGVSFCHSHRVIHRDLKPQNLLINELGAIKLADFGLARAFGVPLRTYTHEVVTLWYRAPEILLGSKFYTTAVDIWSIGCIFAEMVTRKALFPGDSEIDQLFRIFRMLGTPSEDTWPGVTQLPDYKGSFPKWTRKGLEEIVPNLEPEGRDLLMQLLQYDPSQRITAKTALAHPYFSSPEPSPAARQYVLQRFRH
Conditions: at 1 µM
Just the number please, in %, no unit attached.

Some solved cases for reference:
CCn1cnc2c(Nc3cccc(Cl)c3)nc(N[C@@H]3CCCC[C@@H]3N)nc21 ... 6
CC(C)(C)c1cc(C=C(C#N)C#N)cc(Br)c1O ... 109
O=C1Nc2ccc3ncsc3c2/C1=C/c1c[nH]cn1 ... 1
CCc1nc(-c2ccc(OC)cc2)[nH]c1-c1ccncc1 ... 102
COc1cc(OC)c(/C=C2\C(=O)Nc3ccccc32)c(OC)c1 ... 84
COC(=O)[C@@]1(O)C[C@H]2O[C@]1(C)n1c3ccccc3c3c4c(c5c6ccccc6n2c5c31)C(=O)NC4 ... 27
COc1cc2ncnc(Nc3ccc(OCc4ccccc4)cc3)c2cc1OC ... 110

// residual activity lookup, key: O=c1[nH]c2ccccc2n1C1CCN(Cc2ccc(-c3nc4cc5[nH]cnc5cc4nc3-c3ccccc3)cc2)CC1
105

---

Target: cAMP-dependent protein kinase catalytic subunit PRKX (Homo sapiens) (UniProt P51817)
Sequence (P51817 whole entry): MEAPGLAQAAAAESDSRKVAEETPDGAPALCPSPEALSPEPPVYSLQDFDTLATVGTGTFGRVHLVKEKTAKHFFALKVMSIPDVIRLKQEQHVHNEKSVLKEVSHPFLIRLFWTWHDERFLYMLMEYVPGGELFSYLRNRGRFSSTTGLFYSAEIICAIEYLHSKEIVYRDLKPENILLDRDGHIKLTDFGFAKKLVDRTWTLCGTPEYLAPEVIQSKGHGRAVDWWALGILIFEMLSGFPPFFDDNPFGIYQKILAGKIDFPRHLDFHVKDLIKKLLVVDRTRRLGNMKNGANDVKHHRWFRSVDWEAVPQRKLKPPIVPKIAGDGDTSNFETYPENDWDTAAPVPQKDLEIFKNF
Details: at 1 µM
result.type: residual activity (%)
Hi! Could you send only the number? It should be in %, unit omitted.

c1cc(-c2cnn3cc(-c4ccc(OCCN5CCCCC5)cc4)cnc23)ccn1 ... 57
COc1cc2ncnc(Nc3ccc(OCc4ccccc4)cc3)c2cc1OC ... 81
O=[N+]([O-])/C=C/c1ccc2c(c1)OCO2 ... 102
CCn1cnc2c(Nc3cccc(Cl)c3)nc(N[C@@H]3CCCC[C@@H]3N)nc21 ... 95

Proceeding to the next compound to report its residual activity.
# lookup: residual activity of O=c1[nH]c2ccccc2n1C1CCN(Cc2ccc(-c3nc4cc5[nH]cnc5cc4nc3-c3ccccc3)cc2)CC1
98

---

Biological target: SRSF protein kinase 3 (Homo sapiens) (UniProt Q9UPE1);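 note: residual kinase activity expressed as percent of uninhibited control, measured in MOPS buffer at pH 7.0 containing EDTA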
Sequence (Q9UPE1 whole entry): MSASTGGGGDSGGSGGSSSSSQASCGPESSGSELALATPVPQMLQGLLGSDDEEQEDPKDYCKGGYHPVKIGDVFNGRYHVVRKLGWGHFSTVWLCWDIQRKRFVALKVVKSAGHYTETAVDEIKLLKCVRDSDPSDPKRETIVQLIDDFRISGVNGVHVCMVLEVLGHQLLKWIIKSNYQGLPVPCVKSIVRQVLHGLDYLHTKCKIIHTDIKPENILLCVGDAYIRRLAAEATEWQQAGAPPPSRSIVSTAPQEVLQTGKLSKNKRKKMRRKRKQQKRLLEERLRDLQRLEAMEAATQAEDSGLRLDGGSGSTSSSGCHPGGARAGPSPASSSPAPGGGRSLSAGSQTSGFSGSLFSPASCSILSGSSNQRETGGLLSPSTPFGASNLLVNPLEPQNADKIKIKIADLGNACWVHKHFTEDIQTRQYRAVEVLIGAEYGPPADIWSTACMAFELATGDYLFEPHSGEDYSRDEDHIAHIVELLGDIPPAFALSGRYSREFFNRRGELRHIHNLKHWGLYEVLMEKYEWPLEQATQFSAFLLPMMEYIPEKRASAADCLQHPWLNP
Conditions: at 1 µM
Description: Millipore: Percentage of residual kinase activity of SRPK3 at 1uM relative to control. Control inhibitor: Phosphoric acid* at 0.3uM. Buffer: 8 mM MOPS pH 7.0, 0.2 mM EDTA
residual activity overview
Respond with the bare value in %.

Below: 3 compounds and their reported residual activity.
CCc1nc(-c2ccc(OC)cc2)[nH]c1-c1ccncc1 ... 123
O=C1Nc2ccc3ncsc3c2/C1=C/c1c[nH]cn1 ... 98
O=c1[nH]c2ccccc2n1C1CCN(Cc2ccc(-c3nc4cc5[nH]cnc5cc4nc3-c3ccccc3)cc2)CC1 ... 112

Tell me the measured residual activity of COC(=O)[C@@]1(O)C[C@H]2O[C@]1(C)n1c3ccccc3c3c4c(c5c6ccccc6n2c5c31)C(=O)NC4 , please.
11

Name the reported residual activity value associated with the compound C[S+]([O-])c1ccc(-c2nc(-c3ccc(F)cc3)c(-c3ccncc3)[nH]2)cc1 (stereo not given)
102

---

Target: Serine/threonine-protein kinase MRCK beta (Homo sapiens)
Settings: at 1 µM
result.type: residual activity (%)
Reply with just the number (in %).

COc1cc(OC)c(/C=C2\C(=O)Nc3ccccc32)c(OC)c1 ... 83
COc1cc2ncnc(Nc3ccc(OCc4ccccc4)cc3)c2cc1OC ... 95
CC(C)[C@H](CO)Nc1nc(Nc2cccc(Cl)c2)c2ncn(C(C)C)c2n1 ... 98
O=C1Nc2ccc3ncsc3c2/C1=C/c1c[nH]cn1 ... 75

In the following, a different compound is considered.
Find the recorded residual activity belonging to COC(=O)[C@@]1(O)C[C@H]2O[C@]1(C)n1c3ccccc3c3c4c(c5c6ccccc6n2c5c31)C(=O)NC4 and report it.
33

---

Examples of compounds with documented residual activity follow.
Target: Tyrosine-protein kinase TXK (Homo sapiens)
Sequence (whole entry): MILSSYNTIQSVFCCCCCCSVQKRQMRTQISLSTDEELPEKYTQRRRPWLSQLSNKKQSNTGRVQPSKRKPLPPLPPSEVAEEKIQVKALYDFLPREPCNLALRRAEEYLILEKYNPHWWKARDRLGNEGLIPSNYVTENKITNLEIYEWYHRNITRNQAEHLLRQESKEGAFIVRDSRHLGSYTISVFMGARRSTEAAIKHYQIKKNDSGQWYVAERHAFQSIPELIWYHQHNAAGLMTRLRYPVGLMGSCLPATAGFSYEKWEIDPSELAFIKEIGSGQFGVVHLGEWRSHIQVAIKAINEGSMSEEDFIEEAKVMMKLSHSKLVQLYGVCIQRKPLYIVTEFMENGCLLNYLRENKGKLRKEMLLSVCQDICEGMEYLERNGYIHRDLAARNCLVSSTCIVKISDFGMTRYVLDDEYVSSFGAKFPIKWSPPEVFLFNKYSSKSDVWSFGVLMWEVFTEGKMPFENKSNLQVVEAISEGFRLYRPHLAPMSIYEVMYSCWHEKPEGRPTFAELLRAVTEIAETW
Details: at 10 µM
Please respond with the number in % and leave the unit unwritten.

Worked set:
COc1cc(OC)c(/C=C2\C(=O)Nc3ccccc32)c(OC)c1 ... 100
C[S+]([O-])c1ccc(-c2nc(-c3ccc(F)cc3)c(-c3ccncc3)[nH]2)cc1 (stereo not given) ... 42
O=[N+]([O-])/C=C/c1ccc2c(c1)OCO2 ... 77

For the compound shown here, COC(=O)[C@@]1(O)C[C@H]2O[C@]1(C)n1c3ccccc3c3c4c(c5c6ccccc6n2c5c31)C(=O)NC4 , give the reported residual activity.
5

Which residual activity value is on record for COc1ccc2c(c[n+](C)c3c4cc5c(cc4ccc23)OCO5)c1OC ?
59
